# Test system: U2OS
# assay text: cell viability relative to DMSO; higher = less toxic
# particulars: 72 h; 10 nM
The reader will find reported cell viability values listed item by item below.

compound	assayed system	value units	cell viability
O=c1c2ccccc2[se]n1-c1ccccc1	U2OS	%	98.7
CN(C)CCOC(=O)C(c1ccccc1)C1(O)CCCC1 (stereo unspecified) [cyclopentolate]	U2OS	%	96.5
CO[C@H]1C[C@@H]2CC[C@@H](C)[C@@](O)(O2)C(=O)C(=O)N2CCCC[C@H]2C(=O)O[C@H]([C@H](C)C[C@@H]2CC[C@H](n3cnnn3)[C@H](OC)C2)CC(=O)[C@H](C)/C=C(\C)[C@@H](O)[C@@H](OC)C(=O)[C@H](C)C[C@H](C)/C=C/C=C/C=C/1C	U2OS	%	61.8
C1CCC2(CC1)CCNCC2 [4,4-pentamethylenepiperidine]	U2OS	%	95.3
COc1cc(C[C@@H](CO)[C@H](CO)Cc2ccc(O)c(OC)c2)ccc1O [secoisolariciresinol-(-)]	U2OS	%	99.1
Cc1cc(/C=C2\SC(=O)N(c3ccccc3)C2=O)c(C)n1-c1cccnc1	U2OS	%	96.8
CN[C@H]1C(=O)N[C@@H]2Cc3ccc(cc3)Oc3cc4cc(c3O[C@@H]3O[C@H](C(=O)O)[C@@H](O)[C@H](O)[C@H]3NC(=O)CCCCCCCCC(C)C)Oc3ccc(cc3Cl)[C@@H](O)[C@@H]3NC(=O)[C@H](NC(=O)[C@@H]4NC(=O)[C@@H](NC2=O)c2cc(cc(O)c2Cl)Oc2cc1ccc2O)c1ccc(O)c(c1)-c1c(O[C@H]2O[C@H](CO)[C@@H](O)[C@H](O)[C@@H]2O)cc(O)cc1[C@@H](C(=O)NCCCN(C)C)NC3=O	U2OS	%	100
CC1(C)Cc2c(-c3ccccc3)c(-c3ccc(Cl)cc3)c(CC(=O)O)n2C1	U2OS	%	101
N[C@H]1C[C@@H]1c1ccc(-c2cccc(O)c2)cc1	U2OS	%	94.3
CN1CC[C@@H](NC(=O)Nc2ccc(C#N)cc2)C[C@@H]1c1nc2ccccc2[nH]1	U2OS	%	102
CN1CCN(CC(=O)N2c3ccccc3C(=O)Nc3cccnc32)CC1 [pirenzepine]	U2OS	%	93.8
CN(Cc1cnc2nc(N)nc(N)c2n1)c1ccc(C(=O)N[C@@H](CCC(=O)O)C(=O)O)cc1 [methotrexate]	U2OS	%	98.2
C=CCC1(CC(C)C)C(=O)NC(=O)NC1=O	U2OS	%	97.6
O=C(OCC(COC(=O)c1cccnc1)(COC(=O)c1cccnc1)COC(=O)c1cccnc1)c1cccnc1	U2OS	%	104
CC(=N)NCc1cccc(CN)c1 [1400W]	U2OS	%	94.6
CCO/N=C(\C(=O)N[C@@H]1C(=O)N2C(C(=O)[O-])=C(Sc3nc(-c4cc[n+](C)cc4)cs3)CS[C@H]12)c1nsc(NP(=O)(O)O)n1	U2OS	%	106
Nc1nc2c(ncn2COCCO)c(=O)[nH]1	U2OS	%	101
CNC1CCCN(c2c(F)cc3c(=O)c(C(=O)O)cn(C4CC4)c3c2OC)C1 (stereo unspecified)	U2OS	%	102
CCN(CC)CCCCN1c2ccccc2Oc2ccc(Cl)cc21	U2OS	%	96.4
O=C(N[C@H](Cc1ccccc1)C(=O)O)c1sc2cc(F)ccc2c1Cl	U2OS	%	97.1
Nc1cccc2c1C(=O)N(C1CCC(=O)NC1=O)C2=O (stereo unspecified) [pomalidomide]	U2OS	%	97.3
N[C@H](Cc1cc(I)c(Oc2ccc(O)c(I)c2)c(I)c1)C(=O)O [liothyronine-(isomer)]	U2OS	%	99.9
CC(C)(O)C(=O)Nc1ccc([N+](=O)[O-])c(C(F)(F)F)c1 [2-hydroxyflutamide]	U2OS	%	105
Nc1ccn([C@H]2C[C@H](O)[C@@H](CO)O2)c(=O)n1	U2OS	%	106
COc1c(Nc2ccc(S(C)(=O)=O)nc2C)ncnc1OC1CCN(C(=O)OC(C)C)CC1	U2OS	%	99.1
COc1ccc2c(c1)c(C1=C(c3c[nH]c4ccccc34)C(=O)NC1=O)cn2CCCN(C)C	U2OS	%	92.2
O=c1ccn([C@@H]2O[C@H](COP(=O)(O)OP(=O)(O)OP(=O)(O)O)[C@@H](O)[C@H]2O)c(=O)[nH]1	U2OS	%	95.9
COc1ccc(OC)c2c(=S)c3ccccc3[nH]c12	U2OS	%	98.3
c1ccc(C(NCc2cccnc2)(c2ccccc2)c2ccccc2)cc1	U2OS	%	98.5
O=C(Oc1ccc([N+](=O)[O-])cc1)N1CCC(C(O)(c2ccc3c(c2)OCO3)c2ccc3c(c2)OCO3)CC1	U2OS	%	100
O=c1c2ccccc2oc2ccccc12	U2OS	%	94.9

====

# Test system: Vero E6
# assay text: cell viability relative to DMSO; higher = less toxic
# particulars: 72 h; 10 nM
reported property: cell viability (%)

> print(dat)
                                    molecule  value.units  endpoint.result
 1               NCCc1c[nH]c2ccc(C(N)=O)cc12            %              104
 2                      Clc1cccc(N2CCNCC2)c1            %              103
 3  Cc1cccc(/C=N/Nc2cc(N3CCOCC3)nc(OCCc3ccccn3)n2)c1            %              104
 4  Cc1cc2ncc(C(=O)NCC(C)(C)NCC(=O)N3CCC[C@H]3C#N)cn2n1            %             99.5
 5  CN(Cc1cnc2nc(N)nc(N)c2n1)c1ccc(C(=O)N[C@@H](CCC(=O)O)C(=O)O)cc1 [methotrexate]            %             99.1
 6    N=C1N[C@H]2[C@H](CS[C@H]2CCCCC(=O)O)N1            %              106
 7  O=C(Nc1ccc(Cl)cc1)Nc1cccc(-c2cccc(N3CCCC3)n2)c1            %             96.7
 8  CN(C)C(=O)c1ccc(S(=O)(=O)c2ccc(NC(=O)[C@@](C)(O)C(F)(F)F)c(Cl)c2)cc1            %               99
 9  CC(C)(C)c1[nH]cnc1/C=c1\[nH]c(=O)/c(=C/c2ccccc2)[nH]c1=O            %              101
10  CCC(CC)(NC(=O)C(C)C)C(=O)N[C@@H](CCCNC(=N)N)C(=O)NC1(C(=O)NC(c2ccc(F)cc2)c2ccc(F)cc2)CCCC1            %              101
11                    O=c1c2ccccc2oc2ccccc12            %              100
12  CC#CCOC(=O)c1c(C)nc2sc3c(c2c1N)CCC(O)C3 (stereo not given)            %               97
13  Nc1cc(C(F)(F)F)c(-c2cc(N3CCOCC3)nc(N3CCOCC3)n2)cn1            %               97
14  CC(C)NCC(O)COc1cccc2[nH]ccc12 (stereo not given)            %             95.8
15  CC(C)(C)NCC(O)COc1cccc2c1CCC(=O)N2 (stereo not given)            %             95.9
16           CC(=O)Nc1ccc(C(=O)NC(C)(C)C)cc1            %             99.6
17  C[C@@H](C1=C(CCN(C)C)Cc2ccccc21)c1ccccn1 (racemic)            %             98.2
18  O=[N+]([O-])c1ccccc1S(=O)(=O)NCC1CCC(CNC[C@H]2CCc3ccccc3C2)CC1 (stereo not given in full)            %             95.3
19    COc1ccc(Cl)cc1NC(=O)Nc1cc(C)nc2ccccc12            %             95.3
20             O[C@@H](Cc1ccncc1)C(Cl)(Cl)Cl            %             97.1

====

# System: Vero E6
# assay text: cell viability relative to DMSO; higher = less toxic
# particulars: 72 h; 10 nM
reported property: cell viability (%)

compound	endpoint result
CC(=O)[C@@]1(O)CC[C@H]2[C@@H]3C[C@H](C)C4=CC(=O)C=C[C@]4(C)[C@@]3(F)[C@@H](O)C[C@@]21C [fluorometholone]	101
C[Se]C[C@H](N)C(=O)O [Se-methylselenocysteine]	100
OC[C@H]1O[C@H]([S-])[C@H](O)[C@@H](O)[C@@H]1O.[Au+] [aurothioglucose]	91.2
C[N+]12CCC(CC1)C(OC(=O)C(O)(c1ccccc1)c1ccccc1)C2 (stereo not given) [clidinium]	102
CN(C)CCc1ccc(O)cc1 [hordenine]	103
CS(=O)(=O)OCCCCOS(C)(=O)=O [busulfan]	94.8
CO/N=C(\C(=O)N[C@@H]1C(=O)N2C(C(=O)OCOC(=O)C(C)(C)C)=C(C)CS[C@H]12)c1csc(N)n1 [cefetamet-pivoxil]	103
CC1(C)CC[C@]2(C(=O)O)CC[C@]3(C)[C@H](C(=O)C=C4[C@@]5(C)C=C(C#N)C(=O)C(C)(C)[C@@H]5CC[C@]43C)[C@@H]2C1 [bardoxolone]	102
CC[C@@]1(O)C(=O)OCc2c1cc1n(c2=O)Cc2cc3ccccc3nc2-1 [camptothecin]	96.4
CCO/N=C(\C(=O)N[C@@H]1C(=O)N2C(C(=O)[O-])=C(Sc3nc(-c4cc[n+](C)cc4)cs3)CS[C@H]12)c1nsc(NP(=O)(O)O)n1 [ceftaroline-fosamil]	99.6
O=c1ccn([C@@H]2O[C@H](COP(=O)(O)OP(=O)(O)OP(=O)(O)O)[C@@H](O)[C@H]2O)c(=O)[nH]1 [INS316]	93.3
CCc1c(C(=O)C(N)=O)c2c(OCC(=O)O)cccc2n1Cc1ccccc1 [varespladib]	102
O=C1Nc2ccc(I)cc2C1=Cc1cc(Br)c(O)c(Br)c1 [GW-5074]	97.3
CO[C@H]1C[C@@H]2CC[C@@H](C)[C@@](O)(O2)C(=O)C(=O)N2CCCC[C@H]2C(=O)O[C@H]([C@H](C)C[C@@H]2CC[C@H](n3cnnn3)[C@H](OC)C2)CC(=O)[C@H](C)/C=C(\C)[C@@H](O)[C@@H](OC)C(=O)[C@H](C)C[C@H](C)/C=C/C=C/C=C/1C [zotarolimus]	85.2
CN1CCN(CC(=O)N2c3ccccc3C(=O)Nc3cccnc32)CC1 [pirenzepine]	101
